Parameter: CC50 at 6 days. Scope: all listed entries.
Assay: Cytotoxicity test (Cell-titer Blue method) in HepG2.2.15 cells
Type: cell-based
Conditions: human, six days after treatment, highest concentration tested 100 μM, read-out: HepG2.2.15 cell viability CC50

# Structure, CC50 at 6 days
measured = [
    ("C#CCNC(=O)C(=O)c1c(C)c(C(=O)Nc2ccc3ncccc3c2)n(C)c1C", "> 100 µM"),
    ("Cc1c(C(=O)C(=O)NC(C)(C)C)csc1C(=O)Nc1ccc(F)c(Cl)c1", "96 µM"),
    ("Cc1oc(C(=O)C(=O)NCc2nccn2C)cc1C(=O)Nc1ccc(F)c(Cl)c1", "> 100 µM"),
    ("Cc1oc(C(=O)C(=O)NCC#Cc2ccccc2)cc1C(=O)Nc1ccc(F)c(Cl)c1", "29 µM"),
    ("CC(C)(C)NC(=O)C(=O)c1cc(C(=O)Nc2ccc(F)cc2)c(C(C)(C)C)o1", "> 100 µM"),
    ("C#CCNC(=O)C(=O)c1c(C)c(C(=O)Nc2ccc3ccccc3c2)n(C)c1C", "> 100 µM"),
    ("C#CCNC(=O)C(=O)c1cc(C(=O)Nc2ccc(F)c(Cl)c2)c(C)o1", "61 µM"),
    ("C=CCn1cc(CNC(=O)C(=O)c2cc(C(=O)Nc3ccc(F)c(Cl)c3)c(C)o2)nn1", "> 100 µM"),
]

* * *

Assay: Pharmacokinetics (PK) experiment, intragastric administration in rats
Type: in vivo, Male SD rats
Conditions: oral administration

# Compound, absorption after oral administration
rows = [
    ("Cc1sc(C(=O)C(=O)NC(C)(C)C)c(C)c1C(=O)Nc1ccc(F)c(Cl)c1 [Compound 36]", "well absorbed"),
    ("Cc1oc(C(=O)C(=O)NCc2nccn2C)cc1C(=O)Nc1ccc(F)c(Cl)c1 [Compound 8]", "well absorbed"),
    ("CC(C)(C)NC(=O)C(=O)c1cc(C(=O)Nc2ccc(F)cc2)co1 [Compound 42]", "well absorbed"),
    ("Cc1oc(C(=O)C(=O)NCc2cn(C3CC3)nn2)cc1C(=O)Nc1ccc(F)c(Cl)c1 [Compound 11]", "well absorbed"),
    ("C#CCNC(=O)C(=O)c1cc(C(=O)Nc2ccc(F)c(Cl)c2)c(C)o1 [Compound 2]", "well absorbed"),
]

* * *

Test: Pharmacokinetics (PK) experiment, intragastric administration in rats
Format: in vivo, Male SD rats
Settings: male, SD, rat, po, intragastric administration 20 mg/kg, plasma, read-out: AUC0-24

# Structure, Units of measure, AUC(0-t)
data = [
    ("Cc1c(C(=O)C(=O)NC(C)(C)C)c(C)n(C)c1C(=O)Nc1ccc2occc2c1", "ng·h/mL", 17100),
    ("Cc1sc(C(=O)C(=O)NC(C)(C)C)c(C)c1C(=O)Nc1ccc(F)c(Cl)c1", "ng·h/mL", 25800),
    ("C#CC(C)(C)NC(=O)C(=O)c1c(C)c(C(=O)Nc2ccc3occc3c2)n(C)c1C", "ng·h/mL", 87200),
    ("C#CCNC(=O)C(=O)c1c(C)c(C(=O)Nc2ccc3occc3c2)n(C)c1C", "ng·h/mL", 26300),
]

* * *

Test: Pharmacokinetics (PK) experiment, intragastric administration in rats
Format: in vivo, Male SD rats
Settings: male, SD, rat, po, intragastric administration 20 mg/kg, plasma
Property label: Cmax (ng/mL)

# Structure, Units of measure, Assay result
records = [
    ("C#CCNC(=O)C(=O)c1c(C)c(C(=O)Nc2ccc3occc3c2)n(C)c1C", "ng/mL", 3930),
    ("Cc1sc(C(=O)C(=O)NC(C)(C)C)c(C)c1C(=O)Nc1ccc(F)c(Cl)c1", "ng/mL", 3730),
    ("Cc1c(C(=O)C(=O)NC(C)(C)C)c(C)n(C)c1C(=O)Nc1ccc2occc2c1", "ng/mL", 3670),
    ("C#CC(C)(C)NC(=O)C(=O)c1c(C)c(C(=O)Nc2ccc3occc3c2)n(C)c1C", "ng/mL", 9430),
]
